Attribution: BigSolDB 2.1

details: in water, 334.15 K
measurement_name: solubility (mole fraction)
Give the figure only, with no unit attached.

compound `CC(C)Br` , solubility (mole fraction) observed: 0.0063

###

conditions: in water, 316.15 K
measurement_name: solubility (mole fraction)
Give the figure only, with no unit attached.

compound `CC(C)Br` , solubility (mole fraction) observed: 0.00227

###

conditions: in water, 340.75 K
measurement_name: solubility (mole fraction)
Give the figure only, with no unit attached.

molecule `NC(N)=S` , solubility (mole fraction) observed: 0.183

###

details: in water, 351.15 K
measurement_name: solubility (mole fraction)
Give the figure only, with no unit attached.

compound `NC(N)=S` , solubility (mole fraction) observed: 0.239

###

conditions: in water, 303.15 K
measurement_name: solubility (mole fraction)
Give the figure only, with no unit attached.

compound `NC(N)=S` , solubility (mole fraction) observed: 0.0474

###

conditions: in water, 328.45 K
measurement_name: solubility (mole fraction)
Give the figure only, with no unit attached.

compound `NC(N)=S` , solubility (mole fraction) observed: 0.126

###

details: in water, 355.75 K
measurement_name: solubility (mole fraction)
Give the figure only, with no unit attached.

compound `NC(N)=S` , solubility (mole fraction) observed: 0.265

###

settings: in water, 331.25 K
measurement_name: solubility (mole fraction)

compound `CC(C)Br` , solubility (mole fraction) observed: 0.00536

###

details: in water, 330.55 K
measurement_name: solubility (mole fraction)
Give the figure only, with no unit attached.

compound `NC(N)=S` , solubility (mole fraction) observed: 0.135

###

settings: in water, 343.15 K
measurement_name: solubility (mole fraction)
Give the figure only, with no unit attached.

compound `CC(C)Br` , solubility (mole fraction) observed: 0.0101

###

settings: in water, 325.55 K
measurement_name: solubility (mole fraction)
Give the figure only, with no unit attached.

molecule `CC(C)Br` , solubility (mole fraction) observed: 0.00394

###

conditions: in water, 313.25 K
measurement_name: solubility (mole fraction)

molecule `CC(C)Br` , solubility (mole fraction) observed: 0.00189

###

conditions: in water, 350.15 K
measurement_name: solubility (mole fraction)
Give the figure only, with no unit attached.

molecule `CC(C)Br` , solubility (mole fraction) observed: 0.0139

###

settings: in water, 340.55 K
measurement_name: solubility (mole fraction)
Give the figure only, with no unit attached.

molecule `CC(C)Br` , solubility (mole fraction) observed: 0.0087

###

settings: in water, 345.45 K
measurement_name: solubility (mole fraction)
Give the figure only, with no unit attached.

compound `CC(C)Br` , solubility (mole fraction) observed: 0.0112

###

conditions: in water, 300.25 K
measurement_name: solubility (mole fraction)

molecule `NC(N)=S` , solubility (mole fraction) observed: 0.0413

###

conditions: in water, 318.35 K
measurement_name: solubility (mole fraction)
Give the figure only, with no unit attached.

molecule `NC(N)=S` , solubility (mole fraction) observed: 0.0886

###

conditions: in water, 337.35 K
measurement_name: solubility (mole fraction)
Give the figure only, with no unit attached.

molecule `CC(C)Br` , solubility (mole fraction) observed: 0.00743

###

settings: in water, 315.85 K
measurement_name: solubility (mole fraction)
Give the figure only, with no unit attached.

molecule `NC(N)=S` , solubility (mole fraction) observed: 0.0806

###

settings: in water, 336.45 K
measurement_name: solubility (mole fraction)
Give the figure only, with no unit attached.

compound `NC(N)=S` , solubility (mole fraction) observed: 0.161
